# Tested on: SR leukemia
# protocol description: NCI-60 one-dose screen, 48 h (100 = growth as untreated, 0 = no growth, -100 = all killed)
# assay setup: 10 µM
This is part of a sample that, as a whole, favours compounds with a hit. Of some 83,000 tested, about 20% had one in any assay.
Entry flag: satisfied if growth reaches 90%; not satisfied if it does not.

Some solved cases for reference:
>>> category("Nc1nc(N)c2cc(S(=O)(=O)c3cccc(C(F)(F)F)c3)ccc2n1")
"not satisfied"
>>> category("CCCCCC(C)(CC(=O)O)CC(=O)O")
"satisfied"
>>> category("O=C(O)COCC(=O)O")
"satisfied"
>>> category("CC1NC(=O)NC1CCCCCC(=O)O (configuration not stated)")
"satisfied"
>>> category("CCN(CC)c1ccc2nc3ccc(=[N+](CC)CC)cc-3oc2c1")
"not satisfied"

Next compound, please.
// inclusive: growth at least 90%? input: CC1(c2ccccc2)NC(=O)NC1=O (configuration not stated)
satisfied
